# Tested on: L. monocytogenes EGD-e Δhup (ΔhupDGC)
# run_description: [59Fe]-Hn binding to whole cells, Δhup
# Design: species or system Listeria monocytogenes
# assay_context: read-out: Binding Kd; strain Δhup
readout_label: pKd
Please note pKd is a logarithmic value: minus log10 of concentration in mol/L. Answer with that number alone.

What value of measured pKd is listed for C=CC1=C(C)c2cc3[n-]c(cc4nc(cc5[n-]c(cc1n2)c(C)c5CCC(=O)O)C(CCC(=O)O)=C4C)c(C)c3C=C.[59Fe+3] [[^59Fe]-Hn] ?
8.60

###

readout_label: Kd
Express the reported value numerically, then name its unit.

Give the reported Kd for `C=CC1=C(C)c2cc3[nH]c(cc4nc(cc5[nH]c(cc1n2)c(C)c5CCC(=O)O)C(CCC(=O)O)=C4C)c(C)c3C=C` (system: HupD-6H (Lmo2431) (Listeria monocytogenes)).
1150 nM

###

# tested_on: FhuD-6H (Lmo1959) (Listeria monocytogenes, UniProt Q8Y5U6)
# run_description: Intrinsic Trp fluorescence quenching, ligand binding to purified 6H-FhuD
# assay_context: Binding Kd FhuD-6H, intrinsic fluorescence quenching, 3–5 trials, Kd ± SD
readout_label: pKd
Keep in mind that pKd stands for -log10 of concentration in molar terms.

Please look up its pKd: C=CC1=C(C)c2cc3[nH]c(cc4nc(cc5[nH]c(cc1n2)c(C)c5CCC(=O)O)C(CCC(=O)O)=C4C)c(C)c3C=C [PPIX, protoporphyrin IX]
6.56
